# assay_summary: in vitro
# Format: cell-based, human
# condition_parameters: human, CC50 A549
assay_endpoint: CC50 at 48 h (µM)

# molecule, assay_endpoint, test_result
records = [
    ("O=C(Nc1ccc(F)cc1)c1nnsc1S(=O)(=O)c1ccc(Cl)c(Cl)c1", "CC50 at 48 h", 78.4),
    ("O=C(Nc1ccc(C(F)(F)F)nc1)c1ncsc1S(=O)(=O)c1ccc(Cl)cc1", "CC50 at 48 h", 114),
    ("O=C(Nc1ccc(F)cc1)c1nnsc1[S+]([O-])c1ccc(Cl)c(Cl)c1 (stereo not drawn)", "CC50 at 48 h", 122),
    ("O=C(Nc1ccc(F)cc1)c1nnc(S(=O)(=O)c2ccc(Cl)cc2)s1", "CC50 at 48 h", 26),
    ("O=C(Nc1ccc(F)cc1)c1nnsc1[S+]([O-])c1cccc(C(F)(F)F)c1 (stereo not drawn)", "CC50 at 48 h", 93.8),
    ("O=C(Nc1ccc(F)cc1)c1nnsc1[S+]([O-])c1ccc(Cl)cc1 (stereo not drawn)", "CC50 at 48 h", 32.5),
]
